Reported % Efficacy values follow for various compounds
# Test system: PolyRes strain of Haemonchus contortus (resistant against levamisole, mebendazole, ivermectin and closantel)
# Assay method text: Efficacy study of anthelmintics in in vivo H. contortus/jirds model
# Design: species or system Haemonchus contortus in jirds (Meriones unguiculatus)
# Experimental parameters: jirds, oral, dose 5 mpk; reduction of mean worm count vs control group
I only need the number, in %, no unit after it.

Reference set (3 entries):
>  <Compound>
c1cc(NCC2CCCO2)cc([C@H]2CN3CCSC3=N2)c1 (stereo partly shown) [Co. No. B, reference compound]

>  <Recorded measurement>
55.6

$$$$
>  <Compound>
O=C(Nc1cccc([C@H]2CN3CCSC3=N2)c1)c1ccco1 [Co. No. A, reference compound]

>  <Recorded measurement>
35.3

$$$$
>  <Compound>
O=C(Nc1cccc([C@H]2CN3CCSC3=N2)c1)[C@H]1CCCO1

>  <Recorded measurement>
79.3

$$$$

Look up % Efficacy: O=C(Nc1cccc([C@H]2CN3CCSC3=N2)c1)C1CCCO1 (stereo partly shown)
68.8

FYI, the data here is from patent US20080287511A1.
